Attribute: Fluorescence EXmax
experiment: Excitation and emission fluorescence spectra of coumarin derivatives; type: physicochemical; set-up: dose or concentration left out as unconfirmed
Answer in nm, number only, no unit symbol.

{"columns": ["compound", "data-value"],
 "data": [
  ["COc1ccc(-c2cc3ccc(O)cc3oc2=O)cc1 [Compound 3, 7-hydroxy-3-(4-methoxyphenyl)coumarin]", 368],
  ["Cc1ccc(-c2cc3ccc(O)cc3oc2=O)cc1 [Compound 5, 7-Hydroxy-3-(p-tolyl)-2H-chromen-2-one]", 358],
  ["O=c1oc2cc(O)ccc2cc1-n1cncn1", 396]
]}

Q. Give the measured Fluorescence EXmax of O=c1oc2cc(O)ccc2cc1-c1ccc(O)cc1 .
A. 395

----------
Attribute: Fluorescence EMmax
Experiment: Excitation and emission fluorescence spectra of coumarin derivatives
Format: physicochemical
Parameters: dose or concentration left out as unconfirmed
Experimental: The absorbance spectra of 10 μM coumarin derivatives at 100 mM Tris–HCl pH 7.4 containing 10% dimethyl sulfoxide were measured using a Hitachi U-2000 Spectrophotometer (Tokyo, Japan). […] The effect of pH on fluorescence intensity was determined at 405 nm excitation and 460 nm emission, in the presence of 1.5% trichloroacetic acid, 100 mM phosphate buffers at pH 5, 6, 7, 8, and 9, or 1.6 M glycine–NaOH pH 10.4.
Answer in nm, number only, no unit symbol.

Q. Give the measured Fluorescence EMmax of O=c1oc2cc(O)ccc2cc1-c1ccc(O)cc1 .
A. 475

Q. Note, next up: Cc1ccc(-c2cc3ccc(O)cc3oc2=O)cc1 [Compound 5, 7-Hydroxy-3-(p-tolyl)-2H-chromen-2-one]
A. 462

----------
assay: Glucuronidation by human intestinal microsomes (HIM); format: in vitro ADME; settings: human, pooled human intestinal microsomes (HIM), pH 7.4
measured-attribute: Km (µM)
Answer in µM, number only, no unit symbol.

Q. Give the measured Km of O=c1oc2cc(O)ccc2cc1-n1cncn1 .
A. 12

----------
assay: Absorbance spectra of coumarin derivatives; type: physicochemical; settings: 10 μM, 100 mM Tris–HCl pH 7.4, 10% dimethyl sulfoxide
measured-attribute: Amax (nm)
Answer in nm, number only, no unit symbol.

{"columns": ["compound", "Amax (nm)"],
 "data": [
  ["COc1ccc(-c2cc3ccc(O)cc3oc2=O)cc1 [Compound 3, 7-hydroxy-3-(4-methoxyphenyl)coumarin]", 350],
  ["CN(C)c1ccc(-c2cc3ccc(O)cc3oc2=O)cc1", 370],
  ["O=c1oc2cc(O)ccc2cc1-c1ccc(O)cc1", 352],
  ["O=c1oc2cc(O)ccc2cc1-n1cncn1", 392],
  ["Cc1ccc(-c2cc3ccc(O)cc3oc2=O)cc1 [Compound 5, 7-Hydroxy-3-(p-tolyl)-2H-chromen-2-one]", 347]
]}

Q. Give the measured Amax of O=c1oc2cc(O)ccc2cc1-c1ccc(F)cc1 .
A. 344

----------
experiment: Absorbance spectra of coumarin derivatives; type: physicochemical; details: 10 μM, 100 mM Tris–HCl pH 7.4, 10% dimethyl sulfoxide
For each record, check the reported ε abs: if it is below 20000 M⁻¹ cm⁻¹ write t, else write f.

{"columns": ["molecule", "group-label"],
 "data": [
  ["CN(C)c1ccc(-c2cc3ccc(O)cc3oc2=O)cc1 [Compound 4]", "f"]
]}

Q. A record lists COc1ccc(-c2cc3ccc(O)cc3oc2=O)cc1 [Compound 3, 7-hydroxy-3-(4-methoxyphenyl)coumarin] . Is its ε abs below 20000 M⁻¹ cm⁻¹?
A. t

Q. Note, next up: O=c1oc2cc(O)ccc2cc1-c1ccc(F)cc1 [Compound 1]
A. t

Cited source for all entries: paper PMC6150735
